Each entry below lists one item and its recorded T/C value.
Species: Oryctolagus cuniculus
Assay: Anticoagulant activity in rabbit plasma assessed as T/C ratio of prothrombin time (reference value: 1)
Format: functional
ENDPOINT: T/C

INSERT INTO results (record_smiles, endpoint, test_value) VALUES
  ('COc1ccc(-n2cc(C(N)=O)c3ncn(-c4ccc(N5CCOCC5=O)cc4)c(=O)c32)cc1', 'T/C', 1.99),
  ('COc1ccc(-n2cc(C#N)c3ncn(-c4ccc(N5CCC[C@H]5C(N)=O)cc4)c(=O)c32)cc1', 'T/C', 1.67),
  ('COc1ccc(-n2cc(C#N)c3ncn(-c4ccc(N5CCOCC5=O)cc4)c(=O)c32)cc1', 'T/C', 1.88),
  ('O=C(NC[C@H]1CN(c2ccc(N3CCOCC3=O)cc2)C(=O)O1)c1ccc(Cl)s1', 'T/C', 2.03);

Values compiled from ChEMBL document CHEMBL5236667.
